The entries below are paired with their reported pIC50.
System: A498 complex spheroid viability
procedure-text: Anticancer human tumor A498 cell line growth inhibition;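 further: spheroids exposed to agents for seven days before readout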
setup-conditions: curve of first compound; second compound 0.1 µM
pIC50: −log10 of the molar value.

Challenge: Indicate its recorded pIC50; the compound in question is O=C(c1cc(Cc2n[nH]c(=O)c3ccccc23)ccc1F)N1CCN(C(=O)C2CC2)CC1 + NC1CC1c1ccc(-c2cccc(O)c2)cc1
Response given: < 5.00

Challenge: Indicate its recorded pIC50; the compound in question is CC1(C)CCC(CN2CCN(c3ccc(C(=O)NS(=O)(=O)c4ccc(NCC5CCOCC5)c([N+](=O)[O-])c4)c(Oc4cnc5[nH]ccc5c4)c3)CC2)=C(c2ccc(Cl)cc2)C1 + NC1CC1c1ccc(-c2cccc(O)c2)cc1
Response given: 5.35

Challenge: Indicate its recorded pIC50; the compound in question is CCc1c2c(nc3ccc(O)cc13)-c1cc3c(c(=O)n1C2)COC(=O)[C@]3(O)CC + NC1CCC(NC2CC2c2ccccc2)CC1
Response given: > 9.02

###

Test system: A498 complex spheroid viability
procedure-text: Anticancer human tumor A498 cell line growth inhibition;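 further: spheroids exposed to agents for seven days before readout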;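 on viability, T/C: 100% = DMSO vehicle-treated spheroids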
setup-conditions: second compound 10 µM; first compound 0.1 µM; stronger effect = lower value
In this scheme, each record receives a class according to its viability, T/C; the ranges are interval 1: < 30%; interval 2: ≥ 30% and < 70%; interval 3: ≥ 70%

Challenge: Kindly state the category for this molecule: CC1COCCN1c1cc(C2(S(C)(=N)=O)CC2)nc(-c2ccnc3[nH]ccc23)n1 (stereo unspecified) + NC1CC1c1ccc(-c2cccc(O)c2)cc1
Response given: interval 3

Challenge: Kindly state the category for this molecule: COc1cc(Nc2ncc3c(n2)-c2ccc(Cl)cc2C(c2c(F)cccc2OC)=NC3)ccc1C(=O)O + NC1CCC(NC2CC2c2ccccc2)CC1
Response given: interval 2

Challenge: Kindly state the category for this molecule: O=C(C=Cn1cnc(-c2cc(C(F)(F)F)cc(C(F)(F)F)c2)n1)NNc1cnccn1 + NC1CC1c1ccc(-c2cccc(O)c2)cc1
Response given: interval 2

###

System: A498 complex spheroid viability
procedure-text: Anticancer human tumor A498 cell line growth inhibition;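 further: spheroids exposed to agents for seven days before readout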
setup-conditions: curve of first compound; second compound 0.1 µM
In this scheme, each record receives a class according to its IC50; the ranges are c1 (below 60 nM), c2 (60 nM to below 200 nM), c3 (200 nM or more)

Challenge: Kindly state the category for this compound: COc1ccc([C@@H](O)c2cc(-c3ncnc4cc(N5CCOCC5)ccc34)c(F)cc2Cl)nn1 + NC1CCC(NC2CC2c2ccccc2)CC1
Response given: c2

Challenge: Kindly state the category for this compound: NS(=O)(=O)OCC1CC(n2ccc3c(NC4CCc5ccccc54)ncnc32)CC1O (stereo not given) + NC1CCC(NC2CC2c2ccccc2)CC1
Response given: c1

Challenge: Kindly state the category for this compound: O=C(C=Cc1cccc(S(=O)(=O)Nc2ccccc2)c1)NO + NC1CC1c1ccc(-c2cccc(O)c2)cc1
Response given: c3

Challenge: Kindly state the category for this compound: Nc1ccn(C2OC(CO)C(O)C2(F)F)c(=O)n1 (stereo not given) + NC1CC1c1ccc(-c2cccc(O)c2)cc1
Response given: c1

Challenge: Kindly state the category for this compound: O=C(C=Cn1cnc(-c2cc(C(F)(F)F)cc(C(F)(F)F)c2)n1)NNc1cnccn1 + NC1CCC(NC2CC2c2ccccc2)CC1
Response given: c1

Challenge: Kindly state the category for this compound: COc1cc(Nc2ncc3c(n2)-c2ccc(Cl)cc2C(c2c(F)cccc2OC)=NC3)ccc1C(=O)O + NC1CC1c1ccc(-c2cccc(O)c2)cc1
Response given: c2

Challenge: Kindly state the category for this compound: CCc1c2c(nc3ccc(O)cc13)-c1cc3c(c(=O)n1C2)COC(=O)[C@]3(O)CC + NC1CC1c1ccc(-c2cccc(O)c2)cc1
Response given: c1

Challenge: Kindly state the category for this compound: Nc1ccccc1NC(=O)c1ccc(CNC(=O)OCc2cccnc2)cc1 + NC1CC1c1ccc(-c2cccc(O)c2)cc1
Response given: c3

Challenge: Kindly state the category for this compound: COc1cc(Nc2ncc3c(n2)-c2ccc(Cl)cc2C(c2c(F)cccc2OC)=NC3)ccc1C(=O)O + NC1CCC(NC2CC2c2ccccc2)CC1
Response given: c3

Challenge: Kindly state the category for this compound: Nc1ccn(C2OC(CO)C(O)C2(F)F)c(=O)n1 (stereo not given) + NC1CCC(NC2CC2c2ccccc2)CC1
Response given: c1

Challenge: Kindly state the category for this compound: NS(=O)(=O)OCC1CC(n2ccc3c(NC4CCc5ccccc54)ncnc32)CC1O (stereo not given) + NC1CC1c1ccc(-c2cccc(O)c2)cc1
Response given: c1

###

System: A498 complex spheroid viability
procedure-text: Anticancer human tumor A498 cell line growth inhibition;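 further: spheroids exposed to agents for seven days before readout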;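 on viability, T/C: 100% = DMSO vehicle-treated spheroids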
setup-conditions: second compound 1 µM; first compound 0.00316 µM; stronger effect = lower value
Excerpt: Multicellular complex tumor spheroid response to LSD1 Inhibitor Iadademstat in combination with a variety of drugs and investigational agents in selected tumor cell lines The current study was undertaken to assess response to LSD1 inhibitors in combination with standard-of-care drugs and investigational agents in solid tumor complex spheroid models as well as in the K-562 leukemia. […] Compounds. […] If the clinical Cmax for an agent had not been determined, the highest concentration tested was 10 microM. […]
In this scheme, each record receives a class according to its viability, T/C; the ranges are band 1 = under 70%, band 2 = from 70% up to 90%, band 3 = 90% and over

Challenge: Kindly state the category for this compound: Cn1ncnc1C1c2n[nH]c(=O)c3cc(F)cc(c23)NC1c1ccc(F)cc1 (configuration not stated) + NC1CC1c1ccc(-c2cccc(O)c2)cc1
Response given: band 3

Challenge: Kindly state the category for this compound: CC(C)CC(NC(=O)C(Cc1ccccc1)NC(=O)c1cnccn1)B(O)O (configuration not stated) + NC1CC1c1ccc(-c2cccc(O)c2)cc1
Response given: band 1

More entries:
Challenge: Kindly state the category for this compound: CC[C@@]1(O)C(=O)OCc2c1cc1n(c2=O)Cc2cc3c(CN(C)C)c(O)ccc3nc2-1 + NC1CC1c1ccc(-c2cccc(O)c2)cc1
Response given: band 2

Challenge: Kindly state the category for this compound: COc1cc(Nc2ncc3c(n2)-c2ccc(Cl)cc2C(c2c(F)cccc2OC)=NC3)ccc1C(=O)O + NC1CC1c1ccc(-c2cccc(O)c2)cc1
Response given: band 2

Challenge: Kindly state the category for this compound: CC[C@@]1(O)C(=O)OCc2c1cc1n(c2=O)Cc2cc3c(CN(C)C)c(O)ccc3nc2-1 + NC1CCC(NC2CC2c2ccccc2)CC1
Response given: band 2

Challenge: Kindly state the category for this compound: CC1COCCN1c1cc(-c2ccnn2C)c2ccnc(-c3ccn[nH]3)c2n1 (configuration not stated) + NC1CCC(NC2CC2c2ccccc2)CC1
Response given: band 2

Challenge: Kindly state the category for this compound: CC(C)CC(NC(=O)CNC(=O)c1cc(Cl)ccc1Cl)B1OC(=O)CC(CC(=O)O)(C(=O)O)O1 (configuration not stated) + NC1CC1c1ccc(-c2cccc(O)c2)cc1
Response given: band 1

Challenge: Kindly state the category for this compound: O=C(C=Cn1cnc(-c2cc(C(F)(F)F)cc(C(F)(F)F)c2)n1)NNc1cnccn1 + NC1CCC(NC2CC2c2ccccc2)CC1
Response given: band 1

Challenge: Kindly state the category for this compound: CC(C)CC(NC(=O)CNC(=O)c1cc(Cl)ccc1Cl)B1OC(=O)CC(CC(=O)O)(C(=O)O)O1 (configuration not stated) + NC1CCC(NC2CC2c2ccccc2)CC1
Response given: band 1

Challenge: Kindly state the category for this compound: COc1cc(Nc2ncc3c(n2)-c2ccc(Cl)cc2C(c2c(F)cccc2OC)=NC3)ccc1C(=O)O + NC1CCC(NC2CC2c2ccccc2)CC1
Response given: band 2

Challenge: Kindly state the category for this compound: CC1COCCN1c1cc(-c2ccnn2C)c2ccnc(-c3ccn[nH]3)c2n1 (configuration not stated) + NC1CC1c1ccc(-c2cccc(O)c2)cc1
Response given: band 3

Challenge: Kindly state the category for this compound: Nc1ncn(C2CC(O)C(CO)O2)c(=O)n1 (configuration not stated) + NC1CC1c1ccc(-c2cccc(O)c2)cc1
Response given: band 3

###

System: A498 complex spheroid viability
procedure-text: Anticancer human tumor A498 cell line growth inhibition;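 further: spheroids exposed to agents for seven days before readout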;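 on viability, T/C: 100% = DMSO vehicle-treated spheroids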
setup-conditions: second compound 10 µM; first compound 1 µM; stronger effect = lower value
The entries below are paired with their reported viability, T/C.
Value expressed in %; do not type the unit.

Below are worked cases with known answers.
Challenge: Indicate its recorded viability, T/C; the molecule in question is CC(C)c1c(-c2ccccc2)nc2c(C#N)c[nH]n2c1=O + NC1CCC(NC2CC2c2ccccc2)CC1
Response given: 69.6

Challenge: Indicate its recorded viability, T/C; the molecule in question is COc1ccc([C@@H](O)c2cc(-c3ncnc4cc(N5CCOCC5)ccc34)c(F)cc2Cl)nn1 + NC1CCC(NC2CC2c2ccccc2)CC1
Response given: 23.5

Challenge: Indicate its recorded viability, T/C; the molecule in question is O=C(c1cc(Cc2n[nH]c(=O)c3ccccc23)ccc1F)N1CCN(C(=O)C2CC2)CC1 + NC1CC1c1ccc(-c2cccc(O)c2)cc1
Response given: 101

More entries:
Challenge: Indicate its recorded viability, T/C; the molecule in question is COc1cc(Nc2ncc3c(n2)-c2ccc(Cl)cc2C(c2c(F)cccc2OC)=NC3)ccc1C(=O)O + NC1CCC(NC2CC2c2ccccc2)CC1
Response given: 42.1

Origin of values: PubChem BioAssay AID1918947
